The following compounds are shown together with reported pEC50 values.
Tested on: 786-O-Hif-Luc cells
Experiment description: Luciferase Assay
Format: cell-based
Condition label: 24 h, 786-O-Hif-Luc cells; about 24 hours; read-out: Luciferase EC50
Experimental: A pool of infected cells were then selected against 2 μg/mL of puromycin (P8833, Sigma) for 10 days followed by limited dilution to select single clones. Each concentration was tested in triplicate. After about 24 hours, luciferase activity was determined using ONE-Glo Luciferase Assay Reagent (E6110, Promega) following the manufacturer's recommended procedure. EC50 were calculated by using Dotmatics software.
pEC50: −log10 of the molar value.
Result type: pEC50

{"columns": ["Compound", "Observed"],
 "data": [
  ["COc1cc(F)cc(Oc2ccc3c(c2C#N)[C@@H](O)C(F)(F)S3(=O)=O)c1", 4.82],
  ["Cn1cc(Oc2ccc(S(=O)(=O)C(F)(F)F)c3c2CC(F)(F)[C@H]3O)cn1", 6.75],
  ["NC1c2c(ccc(Oc3cc(F)cc(F)c3)c2C(F)F)S(=O)(=O)C1(F)F (centres unmarked)", 7.17],
  ["N#Cc1cc(F)cc(Oc2ccc(S(N)(=O)=O)c3c2C[C@@H](F)[C@H]3O)c1", 6.65],
  ["O=S(=O)(c1ccc(Oc2cncc(F)c2)c2c1[C@H](O)C(F)(F)C2)C(F)(F)F", 8.05],
  ["O=S(=O)(c1ccc(Oc2ccc(F)c3[nH]ncc23)c2c1[C@H](O)C(F)(F)C2)C(F)(F)F", 7.52],
  ["N#Cc1cc(F)cc(Oc2ccc(S(=O)(=O)CF)c3c2CC(F)(F)[C@H]3O)c1", 8.15],
  ["Cc1cc(Oc2cc(F)cc(C#N)c2)c2c(c1S(C)(=O)=O)C(O)C(F)(F)C2 (centres unmarked)", 6.11],
  ["N#Cc1cncc(Oc2ccc(S(N)(=O)=O)c3c2CC(F)(F)[C@H]3O)c1", 5.96],
  ["N#Cc1cc(Oc2ccc3c(c2C(F)F)[C@@H](O)C(F)(F)S3(=O)=O)ccc1F", 6.51],
  ["N#Cc1cc(F)cc(Oc2ccc(S(=O)(=O)C(F)(F)F)c3c2[C@@H](N)C[C@H]3O)c1 (relative stereo)", 5.23],
  ["CS(=N)(=O)c1ccc(Oc2cc(F)cc(F)c2)c2c1[C@H](O)C(F)(F)C2 (some centres unmarked)", 6.56],
  ["NC1CS(=O)(=O)c2ccc(Oc3cc(F)cc(Cl)c3)c(C(F)F)c21 (centres unmarked)", 5.16],
  ["CC1(O)c2c(ccc(Oc3cc(F)cc(F)c3)c2Br)S(=O)(=O)C1(F)F (centres unmarked)", 6.53],
  ["N#Cc1cc(F)cc(Oc2ccc3c(c2Cl)[C@@H](O)C(F)(F)S3(=O)=O)c1", 7.33],
  ["C[S+]([O-])c1ccc(Oc2cc(F)cc(C#N)c2)c2c1[C@H](O)C(F)(F)C2 (some centres unmarked)", 5.64],
  ["NC1c2cc(Oc3cc(F)cc(Cl)c3)ccc2S(=O)(=O)C1(F)F (centres unmarked)", 5.43],
  ["C[C@@H]1Cc2c(Oc3cc(F)cc(C#N)c3)ccc(S(C)(=O)=O)c2[C@@H]1O", 5.68],
  ["CS(=O)(=O)c1ccc(Oc2cc(F)cc(C#N)c2)c2c1[C@H](O)[C@H](F)[C@H]2F", 5.99],
  ["O=S(=O)(c1ccc(Oc2ccc(F)c3[nH]ncc23)c2c1C(O)C(F)(F)C2)C(F)(F)F (centres unmarked)", 6.86],
  ["O=S(=O)(c1ccc(Oc2cncc(Cl)c2)c2c1[C@H](O)C(F)(F)C2)C(F)(F)F", 7.96],
  ["CS(=O)(=O)c1ccc(Oc2cncc(C#N)c2)c2c1[C@H](O)[C@H](F)C2", 5.97],
  ["O=S1(=O)c2ccc(Oc3ccc(F)c(F)c3)c(C(F)F)c2[C@@H](O)C1(F)F", 7.10],
  ["N=S1(=O)c2ccc(Oc3cc(F)cc(F)c3)c(C(F)F)c2C(O)C1(F)F (single isomer, unassigned)", 7.16],
  ["N#Cc1cc(F)cc(Oc2ccc(S(=O)(=O)C(F)(F)F)c3c2CC(F)(F)[C@H]3O)c1", 8.52],
  ["Cc1cncc(Oc2ccc3c(c2Br)[C@@H](O)C(F)(F)S3(=O)=O)c1", 5.85],
  ["O=S1(=O)c2ccc(Oc3cc(F)cc(F)c3)c(C(F)F)c2C(O)C1F (centres unmarked)", 6.91],
  ["CS(=O)(=O)c1ccc(Oc2cc(F)cc(C#N)c2)c2c1[C@H](N)C(F)(F)[C@@H]2F", 5.78],
  ["N#Cc1cc(F)cc(Oc2ccc(C(F)(F)F)c3c2CC(F)(F)[C@H]3O)c1", 8.30],
  ["N#Cc1cncc(Oc2ccc(S(=O)(=O)CF)c3c2[C@@H](F)C(F)(F)[C@H]3O)c1", 7.38],
  ["COc1c(Oc2cc(F)cc(C#N)c2)ccc2c1C(O)C(F)(F)S2(=O)=O (centres unmarked)", 5.96],
  ["CS(=O)(=O)c1ccc(Oc2cc(F)cc(C#N)c2)c2c1[C@H](O)C(F)(Cl)C2 (some centres unmarked)", 7.00]
]}

Where these numbers come from: patent US10098878B2
